testSystem: T1, recombinant purified cyno IL-12 p70 (cynomolgus monkey)
T1 chain 1: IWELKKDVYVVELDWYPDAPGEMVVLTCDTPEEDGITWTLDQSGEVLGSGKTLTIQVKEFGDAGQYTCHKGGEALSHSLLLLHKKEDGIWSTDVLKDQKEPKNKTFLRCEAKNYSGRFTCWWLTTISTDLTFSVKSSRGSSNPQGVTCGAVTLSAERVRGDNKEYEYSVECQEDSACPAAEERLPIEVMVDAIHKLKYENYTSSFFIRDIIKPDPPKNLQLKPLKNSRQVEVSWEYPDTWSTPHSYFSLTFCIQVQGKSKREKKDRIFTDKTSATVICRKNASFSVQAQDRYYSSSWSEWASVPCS
T1 chain 2: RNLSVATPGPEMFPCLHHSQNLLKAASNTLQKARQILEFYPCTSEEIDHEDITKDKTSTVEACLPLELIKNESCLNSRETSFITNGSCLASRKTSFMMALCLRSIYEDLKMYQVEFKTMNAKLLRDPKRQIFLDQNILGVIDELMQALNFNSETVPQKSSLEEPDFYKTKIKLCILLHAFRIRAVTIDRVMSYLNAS
protocolSummary: cell-based or functional assay
Let's look at some binders and their measured Average IC50 (nM) Cyno IL-12, PHA blast IFN-γ assay.
Field: numeric (nM). Do not append units.

Consider the following illustrative entries.
Lookup: # query: Average IC50 (nM) Cyno IL-12, PHA blast IFN-γ assay of entry murine anti-human IL-12p40 monoclonal antibody 1A6 (antibody, V domains shown, Murine mAb) VH: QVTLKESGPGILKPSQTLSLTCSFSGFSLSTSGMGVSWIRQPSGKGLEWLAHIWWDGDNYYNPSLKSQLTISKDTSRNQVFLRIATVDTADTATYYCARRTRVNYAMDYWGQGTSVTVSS VL: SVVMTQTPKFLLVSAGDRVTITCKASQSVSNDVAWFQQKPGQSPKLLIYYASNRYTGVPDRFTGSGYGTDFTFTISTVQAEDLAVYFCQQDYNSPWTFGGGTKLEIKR
Found: 0.044

Lookup: Repeat for the following binder: murine anti-human IL-12p40 monoclonal antibody 1D4 (antibody, V domains shown, Murine mAb purified from hybridoma supernatant) VH: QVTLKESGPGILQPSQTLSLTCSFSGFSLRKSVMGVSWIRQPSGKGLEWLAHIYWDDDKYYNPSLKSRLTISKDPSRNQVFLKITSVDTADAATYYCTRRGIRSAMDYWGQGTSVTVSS VL: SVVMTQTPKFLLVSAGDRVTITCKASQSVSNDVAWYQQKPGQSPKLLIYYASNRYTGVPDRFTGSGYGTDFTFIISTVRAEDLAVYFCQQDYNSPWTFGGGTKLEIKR
Found: 0.078

Lookup: Thanks! And murine anti-human IL-12p40 monoclonal antibody 1D8 (antibody, V domains shown, Murine mAb) VH: QVQLQQSGAELMKPGASVKISCKATGYTFSSYWIEWVKQRPGHGLEWIGDILPGSGSTNYNEKFKDKATFTADTSFNTAYMQLSSLTSEDSAVYYCATRRFRGLDYWGQGTTLTVSS VL: SIVMTQTPKFLLVSAGDRVTITCKASQSVSNDVAWYQQKSGQSPKLLIYYASNRYTGVPDRFTGSGYGTDFTFTISTVQPEDLAVYFCQQDYTSPFTFGSGTKLEIKR ?
Found: 1.4

Lookup: # iterate: murine anti-human IL-12p40 monoclonal antibody 1H6 (antibody, V domains shown, Murine mAb) VH: EVKLVESGGGLVQPGGSRKLSCAASGFTFSDYGMVWVRQAPGKGLEWVAYISSGSSTIHYADTMKGRFTISRDNPKNTLFLQMSSLRSEDTAMYYCARRHYYAMDYWGQGTSVTVSS VL: SFVMTQTPKFLLVSAGDRVTITCKASQSVSNDVAWYQQKPGQSPKLLIYYASNRYTGVPDRFTGTGYGTDFTFTISTVQAEDLAVYFCQQDYTSPFTFGSGTKLEIKR
Found: 1.6

***
Lookup: Average IC50 (nM) Cyno IL-12, PHA blast IFN-γ assay lookup needed for murine anti-human IL-12p40 monoclonal antibody 3G7 (antibody, V domains shown, Murine mAb) VH: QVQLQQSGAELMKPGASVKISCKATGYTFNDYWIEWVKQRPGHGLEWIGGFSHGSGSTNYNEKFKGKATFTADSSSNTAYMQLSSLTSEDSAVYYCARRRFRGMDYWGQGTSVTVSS VL: SIVMTQTPKFLLVSAGDRVTITCKASQSVSNDVAWYQQKPGQSPKLLIYYASNRYTGVPDRFTGSGYGTDFTFTITTVQAEDLAVYFCQQDYSSPWSFGGGTKLEIKR , thanks.
Found: 0.35
